Data credit: PubChem BioAssay (NCI)

Reported GI50 values for the following compounds.
System: COLO 205 colon
Experiment: NCI tumour cell line growth inhibition, 48 h

Please review the entries below; each comes with its answer.
                                   compound  experimental_readout  assay_result
0  CN1CCCCC1CCN1c2ccccc2Sc2ccc(Br)cc21 (stereo not given)                  GI50       2.04 µM
1  O=C(/C=C/c1ccc(O)c(O)c1)N1CCN(c2ccc(Cl)cc2)CC1                  GI50       5.11 µM
2  Cc1cc(N2CCC(N3CCCC3)CC2)nc(/N=C(\N)Nc2ccc(Cl)c(Cl)c2)n1                  GI50        1.7 µM
3  NC(=NCCCCCCN=C(N)/N=C(\N)Nc1ccc(Cl)cc1)/N=C(\N)Nc1ccc(Cl)cc1                  GI50      0.951 µM
4   [CH3][Sn]([CH3])([CH3])[S]C(=S)N1CCOCC1                  GI50     0.0786 µM
5  Clc1ccc2c(NCCNc3nc(N4CCOCC4)nc4ccccc34)ccnc2c1                  GI50       2.02 µM
6  [Br][Pb]([c]1ccccc1)([c]1ccccc1)[c]1ccccc1                  GI50      0.177 µM
7  C=CCC(N[C@@H](CO)c1ccccc1)c1ccc2ccccc2n1 (stereo not given in full)                  GI50      > 100 µM
8  CNC(=O)CCN1CCN(CC/C=C2\c3ccccc3Sc3ccc(Cl)cc32)CC1                  GI50       2.48 µM
9  COc1cc2c(c(OC)c1OC)-c1cc(I)c(O)cc1[C@@H](NC(C)=O)CC2                  GI50     0.0385 µM

Q. Which measured GI50 value corresponds to [O]=[Sn]([CH]1CCCCC1)[CH]1CCCCC1 ?
A. 0.249 µM

Q. Which measured GI50 value corresponds to CCSC[C@@H]1C[C@](O)(c2ccccc2)[C@@H](c2ccccc2)O1 ?
A. > 78.9 µM

Q. Which measured GI50 value corresponds to CN1C2C=CC(=O)C1C1C(=O)N(c3ccccc3)C(=O)C12 (stereo not given) ?
A. 7.81 µM

Q. Which measured GI50 value corresponds to CCn1cc(C(=O)O)c(=O)c2cc(F)c(N3CCN(S(=O)(=O)c4ccc(Cl)cc4Cl)CC3)cc21 ?
A. 2.44 µM

Q. Which measured GI50 value corresponds to COc1ccc2nc3ccccc3c(NCCNCCO)c2c1 ?
A. 0.397 µM
